# Tested system: human norepinephrine transporter (hNET) (Homo sapiens, UniProt P23975)
# Sequence (P23975 whole entry): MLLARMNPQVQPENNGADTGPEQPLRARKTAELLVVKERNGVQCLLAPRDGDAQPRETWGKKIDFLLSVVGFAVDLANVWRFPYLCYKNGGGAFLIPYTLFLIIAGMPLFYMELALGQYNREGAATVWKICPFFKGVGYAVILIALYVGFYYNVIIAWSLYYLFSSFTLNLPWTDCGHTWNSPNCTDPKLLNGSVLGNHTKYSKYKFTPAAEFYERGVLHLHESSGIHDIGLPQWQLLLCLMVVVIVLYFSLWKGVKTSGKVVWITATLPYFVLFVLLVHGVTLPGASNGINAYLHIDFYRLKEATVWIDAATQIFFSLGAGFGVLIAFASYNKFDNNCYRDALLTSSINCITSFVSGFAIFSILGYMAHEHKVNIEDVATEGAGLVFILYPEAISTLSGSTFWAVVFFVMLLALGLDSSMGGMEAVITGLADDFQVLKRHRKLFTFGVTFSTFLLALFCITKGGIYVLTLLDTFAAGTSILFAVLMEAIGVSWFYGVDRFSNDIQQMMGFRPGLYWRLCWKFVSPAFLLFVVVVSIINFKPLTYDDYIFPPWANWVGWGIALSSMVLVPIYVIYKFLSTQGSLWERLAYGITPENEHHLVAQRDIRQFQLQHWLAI
# Protocol summary: hNET uptake, Protocol B: cell based norepinephrine reuptake assay using recombinant hNET (MDCK-Net6 cells)
# Run conditions: NE uptake (Protocol B) IC50 (nM), MDCK-Net6 cells, 3H-NE 16 nM
Where a name gives a salt, the structure may show the parent alone.
Parameter measured: IC50 (nM)
Report the value in nM with no unit label.

Measured IC50 of O=S1(=O)N(CCNC2CCNCC2)c2ccccc2N1c1ccccc1F [Example 133, dihydrochloride] : 45

Field IC50 (entry CNCCCN1c2ccc(-c3ccccc3)cc2N(c2ccccc2F)S1(=O)=O [Example 71, hydrochloride] ) reads 206

Cited source for all entries: patent US20080161366A1
